SYSTEM_UNDER_TEST: GABA-A receptor; alpha-3/beta-3/gamma-2 (Homo sapiens, UniProt P18507+P28472+P34903)
Sequence (P18507 whole entry): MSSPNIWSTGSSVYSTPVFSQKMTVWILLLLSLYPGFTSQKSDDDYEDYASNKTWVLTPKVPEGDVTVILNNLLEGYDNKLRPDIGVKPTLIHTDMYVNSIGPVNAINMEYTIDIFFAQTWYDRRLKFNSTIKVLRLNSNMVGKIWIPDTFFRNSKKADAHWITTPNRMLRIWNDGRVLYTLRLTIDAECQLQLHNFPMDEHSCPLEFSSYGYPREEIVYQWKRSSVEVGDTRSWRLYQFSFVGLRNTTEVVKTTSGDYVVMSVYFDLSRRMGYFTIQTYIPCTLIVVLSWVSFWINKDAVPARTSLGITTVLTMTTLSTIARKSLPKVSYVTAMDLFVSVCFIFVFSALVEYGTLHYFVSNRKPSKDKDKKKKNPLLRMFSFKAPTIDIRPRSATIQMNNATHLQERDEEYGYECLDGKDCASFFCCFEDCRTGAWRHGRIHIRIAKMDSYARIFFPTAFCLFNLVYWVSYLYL
Sequence (P28472 whole entry): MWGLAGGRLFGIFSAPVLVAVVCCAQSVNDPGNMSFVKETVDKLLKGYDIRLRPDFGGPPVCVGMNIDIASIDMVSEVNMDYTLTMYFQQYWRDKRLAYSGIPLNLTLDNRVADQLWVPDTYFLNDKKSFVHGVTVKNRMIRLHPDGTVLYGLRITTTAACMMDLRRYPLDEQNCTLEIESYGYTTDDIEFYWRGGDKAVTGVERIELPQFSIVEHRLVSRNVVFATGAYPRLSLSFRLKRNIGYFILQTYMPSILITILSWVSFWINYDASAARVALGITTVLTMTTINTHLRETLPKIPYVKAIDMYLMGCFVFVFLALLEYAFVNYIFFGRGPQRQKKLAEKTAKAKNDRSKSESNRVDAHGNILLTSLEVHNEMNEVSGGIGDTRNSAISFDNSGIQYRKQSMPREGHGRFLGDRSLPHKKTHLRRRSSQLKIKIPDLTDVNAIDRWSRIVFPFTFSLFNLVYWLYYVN
Sequence (P34903 whole entry): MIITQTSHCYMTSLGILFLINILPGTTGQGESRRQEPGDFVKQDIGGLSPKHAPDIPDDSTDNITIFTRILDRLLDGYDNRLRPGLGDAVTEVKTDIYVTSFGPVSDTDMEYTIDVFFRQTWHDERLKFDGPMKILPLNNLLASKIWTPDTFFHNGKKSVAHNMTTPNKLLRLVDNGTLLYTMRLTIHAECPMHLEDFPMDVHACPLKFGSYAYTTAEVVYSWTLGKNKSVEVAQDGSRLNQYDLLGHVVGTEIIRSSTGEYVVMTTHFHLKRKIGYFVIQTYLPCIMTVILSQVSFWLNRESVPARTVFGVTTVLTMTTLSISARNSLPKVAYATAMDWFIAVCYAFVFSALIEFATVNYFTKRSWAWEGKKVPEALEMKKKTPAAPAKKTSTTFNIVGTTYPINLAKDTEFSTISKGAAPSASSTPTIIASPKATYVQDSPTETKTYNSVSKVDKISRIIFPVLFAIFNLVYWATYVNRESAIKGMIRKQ
PROCEDURE_DETAILS: Displacement of [3H]-Ro- 15-1788 binding from human recombinant Gamma-aminobutyric acid A receptor alpha-3-beta-3-gamma-2 expressed in mouse fibroblast L(tk-) cells (30 min at 24 degrees C, pH 7.4)
RECORDED_METRIC: Ki (nM)

SMILES | RECORDED_METRIC | NUMERIC_VALUE
COC(=O)c1sccc1-c1cnnc(-c2ccccc2)c1 | Ki | 45
Cn1ncnc1COc1cccc(-c2cnnc(-c3ccccc3)c2)c1 | Ki | 10.4
CCOc1cc(-c2cccc(C#N)c2)cnn1 | Ki | 72
N#Cc1ccccc1-c1cnnc(-c2ccccc2)c1 | Ki | 440
c1ccc(-c2cc(-c3ccnc(-c4ccncc4)n3)cnn2)cc1 | Ki | 3.1
COC(=O)c1cccc(-c2cnnc(-c3ccccc3)c2)c1 | Ki | 29
COC(=O)c1c(-c2ccccc2)cnnc1-c1ccccc1 | Ki | 64
c1ccc(-c2cnnc(-c3ccccc3)c2)cc1 | Ki | 45
Brc1cccc(-c2cnnc(-c3ccccc3)c2)c1 | Ki | 15
N#Cc1cccc(-c2cnnc(OCc3ccccc3)c2)c1 | Ki | 60
CC(C)Oc1cccc(-c2cnnc(-c3ccccc3)c2)c1 | Ki | 27
COc1cc(-c2cccc(Br)c2)cnn1 | Ki | 205

====

PROCEDURE_DETAILS: Clearance of compound determined after iv administration at 1 mg/kg dose as a solution(1 mg/mL) in a PEG 300:H2O(3:1)
Assay type: ADME, organism-based
Design: dose 1 mg/kg, route intravenous
RECORDED_CONDITIONS: rat, in vivo

SMILES | clearance (mL/min/kg)
N#Cc1cccc(-c2cnnc(-c3ccccc3)c2)c1 | 36

====

SYSTEM_UNDER_TEST: GABA-A receptor; alpha-3/beta-3/gamma-2 (Homo sapiens, UniProt P18507+P28472+P34903)
PROCEDURE_DETAILS: Displacement of [3H]-Ro- 15-1788 binding from human recombinant Gamma-aminobutyric acid A receptor alpha-3-beta-3-gamma-2 expressed in mouse fibroblast L(tk-) cells (30 min at 24 degrees C, pH 7.4)
Each record gets a class by Ki: low group: < 10 nM; middle group: ≥ 10 nM and < 50 nM; high group: ≥ 50 nM

SMILES | GROUP
N#Cc1cccc(-c2cnnc(-c3cccc(F)c3)c2)c1 | low group
N#Cc1cccc(-c2cnnc(-c3ccccc3)c2)c1 | middle group
CCOc1cc(-c2cccc(Br)c2)cnn1 | middle group
CC(C)Nc1cc(-c2cccc(Br)c2)cnn1 | middle group
N#Cc1cccc(-c2cnnc(NCc3ccccc3)c2)c1 | middle group
N#Cc1cccc(-c2cc(-c3ccccc3)cnn2)c1 | high group
CCNc1cc(-c2cccc(C#N)c2)cnn1 | high group
CN(C)c1cc(-c2cccc(Br)c2)cnn1 | high group
N#Cc1cccc(-c2cnnc(-c3ccccc3F)c2)c1 | low group
CCNc1cc(-c2cccc(Br)c2)cnn1 | low group
N#Cc1cccc(-c2cnnc(-c3ccc(F)cc3)c2)c1 | middle group
N#Cc1ccc(-c2cnnc(-c3ccccc3)c2)cc1 | high group

====

SYSTEM_UNDER_TEST: GABA-A receptor; alpha-5/beta-3/gamma-2 (Homo sapiens) (UniProt P18507+P28472+P31644)
PROCEDURE_DETAILS: Efficacy at GABAA alpha-5-beta-3-gamma-2 receptor expressed in mouse fibroblast L(tk-) cells measured at 300 nM derived from at least three plates/day screened over a minimum of 2 days
Format: functional, cell-based

SMILES | Efficacy
COC(=O)c1sccc1-c1cnnc(-c2ccccc2)c1 | -39
N#Cc1cccc(-c2cnnc(NCc3ccccc3)c2)c1 | 17
c1ccc(-c2cnnc(-c3ccccc3)c2)cc1 | -14
CNc1cc(-c2cccc(Br)c2)cnn1 | -26
N#Cc1cccc(-c2cnnc(-c3ccc(F)cc3F)c2)c1 | -57
CC(C)Oc1cccc(-c2cnnc(-c3ccccc3)c2)c1 | 18
c1ccc(-c2cc(-c3ccnc(-c4ccncc4)n3)cnn2)cc1 | -62
CC(C)Nc1cc(-c2cccc(Br)c2)cnn1 | 14
c1ccc(-c2cc(-c3cccc(-n4cnnc4)c3)cnn2)cc1 | -31
CC(C)Oc1cc(-c2cccc(Br)c2)cnn1 | 12
N#Cc1ccc(-c2cnnc(-c3ccccc3)c2)cc1 | 45
Brc1cccc(-c2cnnc(-c3ccccc3)c2)c1 | -2

====

# Efficacy values compiled below
SYSTEM_UNDER_TEST: GABA-A receptor; alpha-3/beta-3/gamma-2 (Homo sapiens) (UniProt P18507+P28472+P34903)
PROCEDURE_DETAILS: Efficacy at GABAA alpha-3-beta-3-gamma-2 receptor expressed in mouse fibroblast L(tk-) cells measured at 300 nM derived from at least three plates/day screened over a minimum of 2 days
Type: functional, cell-based

SMILES | Efficacy
CCOc1cc(-c2cccc(Br)c2)cnn1 | 39
CC(C)Oc1cccc(-c2cnnc(-c3ccccc3)c2)c1 | 22
c1ccc(-c2cnnc(-c3ccccc3)c2)cc1 | -20
Cn1ncnc1COc1cccc(-c2cnnc(-c3ccccc3)c2)c1 | 43
CCNc1cc(-c2cccc(C#N)c2)cnn1 | 8
COC(=O)c1cccc(-c2cnnc(-c3ccccc3)c2)c1 | -7
CNc1cc(-c2cccc(Br)c2)cnn1 | 3
c1ccc(-c2cc(-c3ccnc(-c4ccncc4)n3)cnn2)cc1 | -49
Brc1cccc(-c2cnnc(NCc3ccccc3)c2)c1 | 66
CCOc1cc(-c2cccc(C#N)c2)cnn1 | 19
N#Cc1cccc(-c2cnnc(-c3ccccc3F)c2)c1 | -17
N#Cc1cccc(-c2cnnc(-c3ccccc3)c2)c1 | -4
N#Cc1cccc(-c2cnnc(-c3ccc(F)c(F)c3)c2)c1 | 32
CN(C)c1cc(-c2cccc(Br)c2)cnn1 | -49
COc1cc(-c2cccc(Br)c2)cnn1 | 42
c1ccc(-c2cc(-c3cccc(-n4cnnc4)c3)cnn2)cc1 | 13
N#Cc1cccc(-c2cnnc(NCc3ccccc3)c2)c1 | 59
Brc1cccc(-c2cnnc(OCc3ccccc3)c2)c1 | 32
N#Cc1ccc(-c2cnnc(-c3ccccc3)c2)cc1 | 49
COC(=O)c1sccc1-c1cnnc(-c2ccccc2)c1 | -44

The values you see were collected from ChEMBL document CHEMBL1141088.
